Tested on: HCT-116 colon
Experiment: NCI-60 one-dose screen, 48 h
Conditions: 10 µM unless noted
This is part of a sample that, as a whole, favours compounds with a hit. Of some 83,000 tested, about 20% had one in any assay. Active and inactive are the calls of the source. How the source made its calls: active means growth percent below 10; inactive means the rest.
I would appreciate it if you answered using one of these outcomes: active, inactive

NNC(=O)CSc1nc2scc(-c3ccccc3)c2c(=O)n1-c1ccccc1: inactive
COc1cc(/C=N/NC(=O)Cn2c(-c3ccc(C)o3)nc3ccccc32)ccc1OCc1ccccc1: inactive
COc1cc(C2CC(c3cccc(Nc4ccnc5cc(Cl)ccc45)c3)=NN2C=O)cc(OC)c1OC (stereo not given): active
O=P(O)(O)C(O)(Cc1cccnc1)P(=O)(O)O: inactive
Oc1c(C(Nc2cccc3ccccc23)c2ccccc2)ccc2cccnc12 (stereo not given): inactive

[in] Can you look up the reported call for CC(=O)Nc1ccc(/C=N/N2CCCCCC2)cc1 for me?
[out] inactive

[in] // param item: COc1cc2ncnc(Nc3ccc(S(=O)(=O)Nc4nccs4)cc3)c2cc1OCCCN1CCOCC1 ; yields the recorded call
[out] inactive

[in] Dear all, I need the recorded test outcome for O=C1CCCN1C(O)CCN(Cc1ccccc1)Cc1ccc(Cl)cc1 (stereo not given) , thank you.
[out] inactive

[in] Given O=C1/C(=C/c2cc(F)cc(F)c2)Cc2cc(F)cc(F)c21 , state the outcome it received in this test.
[out] inactive

[in] Short answer needed: outcome of this test for COc1cccc(/C(C)=N/NC(=O)CSc2nc3ccccc3c(=O)n2CCc2ccc(S(N)(=O)=O)cc2)c1 ?
[out] active

* * *

Quick reference: growth of the listed items.
System: SW-620 colon
Experiment: NCI-60 one-dose screen, 48 h (100 = growth as untreated, 0 = no growth, -100 = all killed)
Settings: 10 µM unless noted
Compounds without any hit were thinned out: in the full panel of roughly 83,000, 20% have a hit.
// note: answer is a bare numeric in %

Known results for molecules:
CCOC(=O)Nc1ccc2nc(N3CCCCCC3)sc2c1: 24.5
C[Si](C)(C)C(c1ccccc1)c1ccccc1: 101
CC1OC(n2c3ccccc3c3c4c(c5c6ccccc6[nH]c5c32)C(=O)N(CCN[C@H]2CCC[C@@H]2N)C4=O)CC(O)C1O (some centres not stated): 17.4
NC(=S)N1N=C(c2ccc(Cl)cc2)CC1c1cc2ccccc2[nH]c1=O (configuration not stated): 108
COc1cnc2c(c1)C(=O)c1c-2n(CCCNC(C)C)c(=O)c2cc(Cl)ccc12: -81.7

[in] For SW-620 colon, provide growth of O=C1C(Cl)=C(Nc2cccc3ccccc23)C(=O)c2ccccc21 please.
[out] 68.9

[in] // lookup growth | system=SW-620 colon | key= COc1ccc(-c2cc(-c3cc4ccccc4oc3=O)n(-c3ccccc3)n2)cc1
[out] 66.6

* * *

Test system: SK-MEL-5 melanoma
Experiment: NCI-60 one-dose screen, 48 h (100 = growth as untreated, 0 = no growth, -100 = all killed)
Conditions: 10 µM unless noted
This is part of a sample that, as a whole, favours compounds with a hit. Of some 83,000 tested, about 20% had one in any assay.
Measured quantity: growth (%)
Give the value, in units of %, as a plain number.

C=CC(=O)N1CN(C(=O)C=C)CN(C(=O)C=C)C1: 71.5

[in] Can you look up the measured growth of COc1cc(/C=C2\CN(C(=O)OC(C)(C)C)C/C(=C\c3ccc(O)c(OC)c3)C2=O)ccc1O for me?
[out] 93.4

[in] Look up growth for this compound: CCN(CC)c1cc(C)c(Cc2c(OC)ccc3ccccc23)cc1C
[out] 99.4

[in] Sample NC(N)=NC1CCCCC1 — what was its growth?
[out] 107

[in] Need growth, item COc1cc(NCCC2CCCCN2)c2ncccc2c1OC (stereo not drawn)
[out] 77.8

[in] Which growth is reported for this compound? Cc1ccccc1Nc1n[nH]c(Cc2ccccc2)n1
[out] 93.9

[in] For the compound Cc1ccsc1C(=O)CC(=O)C(F)(F)C(F)(F)C(F)(F)F , what growth is on record?
[out] 109

[in] Which value of growth has been reported for CCN(CC)CC(=O)Nc1c(C)cc(C(=O)NN)cc1C in the records?
[out] 102

* * *

Test system: BT-549 breast
Test: NCI-60 one-dose screen, 48 h (100 = growth as untreated, 0 = no growth, -100 = all killed)
Settings: 10 µM unless noted
Compounds without any hit were thinned out: in the full panel of roughly 83,000, 20% have a hit. Activity calls are given as the source filed them. The calls were made as follows: active = growth percent below 10; inactive = the rest.
# reported growth; entries follow

Take a look at these entries with their results.
COc1cccc(-c2cc(-c3cccs3)c(C#N)c(=O)[nH]2)c1: 113% (inactive)
CCN(C(=O)CCl)C(C)(C)C(SSSC(c1ccc(Cl)cc1)C(C)(C)N(CC)C(=O)CCl)c1ccc(Cl)cc1 (stereo not drawn): 85.8% (inactive)
CCN(CC)c1ccc(/C=C2/NC(=O)NC2=O)cc1: 38.9% (inactive)
CCC1N=C(N)N=C(N)N1c1ccc(Cl)cc1 (stereo not drawn): 100% (inactive)

[in] Could you share what growth was measured for Cc1nn(-c2cccc(Cl)c2)c(C)c1N=Nc1ccc(Br)cc1 , tested on BT-549 breast?
[out] 97.6% (inactive)

[in] Give recorded growth with BT-549 breast for the following compound: CN(C)c1nc(-c2ccco2)n2nc(-c3ccc(Cl)cc3)cc2n1
[out] 86.7% (inactive)

[in] // map CC(=O)Oc1ccccc1C(=O)Nc1ncc([N+](=O)[O-])s1 to recorded growth (system: BT-549 breast)
[out] -29.4% (active)

[in] Field: growth (BT-549 breast). Entry: CCCCCCCCCCCCNC(=O)N[C@H](C(=O)N[C@H]1/C=C/CCNC(=O)/C=C/[C@H](C)NC1=O)C(C)C
[out] -87.2% (active)

[in] I'm curious: which growth was measured for O=C(N/N=C/c1ccc([N+](=O)[O-])o1)c1ccc(O)cc1 tested on BT-549 breast?
[out] 59.4% (inactive)

[in] growth of CC(C)CCSc1nc(Nc2ccccc2)c(C#N)c(-c2ccc(F)cc2)n1 on BT-549 breast?
[out] 79% (inactive)

[in] Fill in the recorded growth for this compound, with BT-549 breast as test system: COc1cccc(C2C(C#N)=C(N)Oc3cc4c(cc32)OCO4)c1 (stereo not drawn)
[out] 24% (inactive)

[in] Write down the reported growth of CCN(CC)c1ccc(/C=N/NC(=O)c2ccc(S(C)(=O)=O)cc2)c(O)c1 , test system: BT-549 breast.
[out] 30.7% (inactive)

[in] Value wanted: growth (BT-549 breast) of entry CCN(CC)c1ccc2c(cc1=O)[C@@H](NC(C)=O)CCc1cc(OC)c(OC)c(OC)c1-2
[out] 1.73% (active)

* * *

Tested on: T-47D breast
Assay: NCI-60 one-dose screen, 48 h (100 = growth as untreated, 0 = no growth, -100 = all killed)
Settings: 10 µM unless noted
Compounds without any hit were thinned out: in the full panel of roughly 83,000, 20% have a hit.
growth strictly less than 70% = Met. Otherwise Not met.

O=C(Nc1cccc(-n2ccc3c(NC(=O)c4ccccc4)nccc32)c1)c1ccc(N2CCOCC2)c(C(F)(F)F)c1: Met

Please turn your attention to the following entry.
[in] API: query returns whether the compound falls strictly under 70% in growth. Query: O=C(Nc1ccc(-n2ccc3c(NC(=O)c4ccccc4)nccc32)cc1)c1ccc(N2CCOCC2)c(C(F)(F)F)c1
[out] Met

* * *

Tested on: RPMI-8226 leukemia
Test: NCI-60 one-dose screen, 48 h (100 = growth as untreated, 0 = no growth, -100 = all killed)
Settings: 10 µM unless noted
This is part of a sample that, as a whole, favours compounds with a hit. Of some 83,000 tested, about 20% had one in any assay.
Kindly apply the following: y if growth is less than 40%, n in every other case.

[in] Answer whether the compound NS(=O)(=O)c1ccc(CCn2c(SCC(=O)N/N=C/c3cccnc3)nc3ccccc3c2=O)cc1 has growth strictly less than 40%
[out] n

[in] I'd appreciate it if you could check whether CC[C@]1(O)C[C@H]2CN(CCc3c([nH]c4ccccc34)C(C(=O)OC)(c3cc4c(cc3OC)N(C)[C@H]3[C@@](O)(C(=O)OC)[C@H](OC(C)=O)[C@]5(CC)[C@@H]6C[C@@H]6CN6CC[C@]43[C@@H]65)C2)C1 (some centres not stated) has growth smaller than 40%.
[out] n

* * *

Tested on: SR leukemia
Experiment: NCI-60 one-dose screen, 48 h
Conditions: 10 µM unless noted
Compounds without any hit were thinned out: in the full panel of roughly 83,000, 20% have a hit. The source made the active and inactive calls. How the source made its calls: active means growth percent below 10; inactive means the rest.
Permitted responses: True for active, False for inactive

// below: answered molecules
CC(C)CCSc1nc(Nc2ccccc2)c(C#N)c(-c2ccc(F)cc2)n1: False
CCC1=CC2CN(C1)Cc1c([nH]c3ccccc13)[C@@](C(=O)OC)(c1cc3c(cc1OC)N(C)[C@H]1[C@@](O)(C(=O)OC)[C@H](OC(C)=O)[C@]4(CC)C=CCN5CC[C@]31[C@@H]54)C2 (some centres undefined): True
COc1cc2c(=O)n(CCCN(C)C)c3c4cc[nH]c4ncc3c2cc1OC: False

[in] Status in this test for COc1ccc2nc3cc(Cl)ccc3c(NC(=O)CSc3ccc(Cl)cc3)c2c1 ?
[out] True

[in] Check the results log: what was the call for COc1cc(C2CC(c3ccc(C)cc3)=NN2C=O)ccc1Oc1ccnc2cc(Cl)ccc12 (centres undefined) ?
[out] False

[in] Write down the call the test reported for this molecule. Item: ClC1=NC(Cl)C(Cl)=N/C1=N\c1ncn[nH]1 (centres undefined)
[out] True

[in] # fetch the recorded call for CS(=O)(=O)c1ccc(C(=O)N/N=C/c2cccc3ccccc23)cc1 here
[out] False

[in] In this assay, the call recorded for Cc1ccccc1NC(=O)c1sc2nc3c(cc2c1N)C(=O)CCC3 was what?
[out] False
